Sourced from ChEMBL document CHEMBL4513216

Test system: Plasmodium falciparum
Assay Remarks: Screen against P. falciparum Asexual Blood Stage (ABS), at 5uM
Format: functional, Dd2
Condition Details: tested at 5 uM
About 2,100 (3.2%) of roughly 65,000 compounds showed an effect of 50% or more. The median lay at about -52%. Many of the other results were omitted from the sample, so strong results are more common in it than they were.
Exam item: assign TRUE to entries whose INHIBITION is below -30% and FALSE to entries at or above -30%. Note that a value of exactly -30% receives FALSE.

Below, 4 compounds whose answers are already recorded.
Cc1ccc(C(=O)N2CC3(CCNCC3)c3cc(Cl)ccc32)cn1    FALSE
Cc1ccc(N2C[C@H]3CCC[C@@H](CN(C)C)[C@H]3C2)nn1    TRUE
Cc1cccc(CN2CCC3(CCCN(Cc4cnn(C)c4)C3)C2)n1 (stereo not drawn)    FALSE
Cc1cccc(C(=O)Nc2cccc3c2CCCC3)n1    TRUE

Q: Decide: INHIBITION of `Clc1ccc(C2(NCc3noc(C4CC4)n3)CCC2)cc1` strictly below -30%?
Result: FALSE

Q: Decide: INHIBITION of `CN(CCc1ccccc1)Cc1c(C2CCNCC2)[nH]c2ncccc12` strictly below -30%?
Result: FALSE

Q: Decide: INHIBITION of `CCN(CC)Cc1cn2c(n1)CN(C(=O)Cc1ccsc1)CC2` strictly below -30%?
Result: TRUE

Q: Decide: INHIBITION of `CN(CCc1ccncc1)Cc1c(C2CCCC2)[nH]c2ncccc12` strictly below -30%?
Result: TRUE
